protocol: Pharmacokinetics after IV or oral administration in rat
Type: in vivo, SD rat
recordedConditions: male, Sprague-Dawley, rat, plasma, po, 50 mg/kg, SD rat M, Saline

- smilesStructure: "CN(NC(=O)CC(=O)NN(C)C(=S)c1ccccc1)C(=S)c1ccccc1"
  Tmax, min: 37.8

====

protocol: Pharmacokinetics after IV or oral administration in mouse
Type: in vivo
recordedConditions: female, plasma; CD-1 mouse F, PO, TPGS/PEG400 (sol'n), 100 mg/kg

- smilesStructure: "CN(NC(=O)CC(=O)NN(C)C(=S)c1ccccc1)C(=S)c1ccccc1"
  AUC(0-inf) (ng·h/mL): 8640

====

protocol: Pharmacokinetics after IV or oral administration in rat
Type: in vivo, SD rat
recordedConditions: male, Sprague-Dawley, rat, plasma, iv, 80 mg/kg, SD rat M, IV bolus, HP-β-CD/saline

- smilesStructure: "CN(NC(=O)CC(=O)NN(C)C(=S)c1ccccc1)C(=S)c1ccccc1"
  unitsLabel: "min"
  half-life: 48

====

protocol: Pharmacokinetics after IV or oral administration in rat
Format: in vivo, SD rat
recordedConditions: male, Sprague-Dawley, rat, plasma, iv, 50 mg/kg, SD rat M, IV bolus, Phospholipid

- compound: "CN(NC(=O)CC(=O)NN(C)C(=S)c1ccccc1)C(=S)c1ccccc1 [Compound 1]"
  unitsLabel: "min"
  half-life: 54

====

protocol: Pharmacokinetics after IV or oral administration in rat
Assay type: in vivo, SD rat
recordedConditions: male, Sprague-Dawley, rat, plasma, iv, 25 mg/kg, SD rat M, IV bolus, Saline
readout: AUC(0-inf) (ng·h/mL)

- smilesStructure: "CN(NC(=O)CC(=O)NN(C)C(=S)c1ccccc1)C(=S)c1ccccc1"
  readout: "AUC(0-inf)"
  val: 11600

====

protocol: Pharmacokinetics after IV or oral administration in rat
Type: in vivo, SD rat
recordedConditions: male, Sprague-Dawley, rat, plasma, po, 80 mg/kg, SD rat M, HP-β-CD/saline

- smilesStructure: "CN(NC(=O)CC(=O)NN(C)C(=S)c1ccccc1)C(=S)c1ccccc1"
  half-life (h): 1.2

====

protocol: Pharmacokinetics after IV or oral administration in rat
Format: in vivo, SD rat
recordedConditions: male, Sprague-Dawley, rat, plasma, po, 50 mg/kg, SD rat M, TPGS/PEG400 (sol'n)
readout: Tmax (min)

- smilesStructure: "CN(NC(=O)CC(=O)NN(C)C(=S)c1ccccc1)C(=S)c1ccccc1"
  val: 18

Cited source for all entries: patent US8618170B2
